Hey, just so you know, these numbers are from ChEMBL document CHEMBL1156597.

# Test system: PANC-1
# protocol.details: Cytotoxicity against human PANC1 cells after 48 hrs by SRB assay
# Format: functional
# test.settings: PANC-1, 48 h
# TGI listing for each entry below
# value in nM; strip the unit string

Use these answered entries as a reference point.
C/C=C1\NC(=O)[C@H](Cc2ccccc2)NC(=O)[C@@H](C(C)C)NC(=O)[C@@H]([C@H](C)CC)NC(=O)[C@H](NC(=O)[C@H](NC(=O)[C@H](CCCNC(=O)c2cc(F)c(F)c(F)c2F)NC(=O)[C@H]2CCCN2C(=O)[C@H](NC(=O)[C@@H](NC(=O)[C@@H](NC(=O)[C@H](NC(=O)CCCC(C)C)C(C)C)[C@@H](C)O)C(C)C)C(C)C)[C@H](C)CC)[C@H](C)OC(=O)[C@H](C(C)C)NC1=O    1580
C/C=C1\NC(=O)[C@H](Cc2ccc(OC)cc2)NC(=O)[C@@H](C(C)C)NC(=O)[C@@H]([C@H](C)CC)NC(=O)[C@H](NC(=O)[C@H](NC(=O)[C@H](CCCN)NC(=O)[C@H]2CCCN2C(=O)[C@H](NC(=O)[C@@H](NC(=O)[C@@H](NC(=O)[C@H](NC(=O)CC[C@@H](C)CC)C(C)C)[C@@H](C)O)C(C)C)C(C)C)[C@H](C)CC)[C@H](C)OC(=O)[C@H](C(C)C)NC1=O    4340

Then this compound:
Problem: Please report TGI for the following compound: C/C=C1\NC(=O)[C@H](Cc2ccc(-c3ccccc3)cc2)NC(=O)[C@@H](C(C)C)NC(=O)[C@@H]([C@H](C)CC)NC(=O)[C@H](NC(=O)[C@H](NC(=O)[C@H](CCCN)NC(=O)[C@H]2CCCN2C(=O)[C@H](NC(=O)[C@@H](NC(=O)[C@@H](NC(=O)[C@H](NC(=O)CCCC(C)C)C(C)C)[C@@H](C)O)C(C)C)C(C)C)[C@H](C)CC)[C@H](C)OC(=O)[C@H](C(C)C)NC1=O
Solution: 1330

* * *

# System: HT-29
# protocol.details: Cytotoxicity against human HT29 cells after 48 hrs by SRB assay
# Format: functional, cell-based
# test.settings: Homo sapiens, HT-29, 48 h
reported.metric: GI50 (nM)
# value in nM; strip the unit string

Use these answered entries as a reference point.
C/C=C1\NC(=O)[C@H](Cc2ccccc2)NC(=O)[C@@H](C(C)C)NC(=O)[C@@H]([C@H](C)CC)NC(=O)[C@H](NC(=O)[C@H](NC(=O)[C@H](CCCN)NC(=O)[C@H]2CCCN2C(=O)[C@H](NC(=O)[C@@H](NC(=O)[C@@H](NC(=O)[C@H](NC(=O)CCCCCCC)C(C)C)[C@@H](C)O)C(C)C)C(C)C)[C@H](C)CC)[C@H](C)OC(=O)[C@H](C(C)C)NC1=O    578
C/C=C1\NC(=O)[C@H](Cc2ccccc2)NC(=O)[C@@H](C(C)C)NC(=O)[C@@H]([C@H](C)CC)NC(=O)[C@H](NC(=O)[C@H](NC(=O)[C@H](CCCN)NC(=O)[C@H]2CCCN2C(=O)[C@H](NC(=O)[C@@H](NC(=O)CNC(=O)[C@H](NC(=O)CCCC(C)C)C(C)C)C(C)C)C(C)C)[C@H](C)CC)[C@H](C)OC(=O)[C@H](C(C)C)NC1=O    893

Then this compound:
Problem: Please report GI50 for the following compound: C/C=C1\NC(=O)[C@H](Cc2ccccc2)NC(=O)[C@@H](C(C)C)NC(=O)[C@@H]([C@H](C)CC)NC(=O)[C@H](NC(=O)[C@H](NC(=O)[C@H](CCCN)NC(=O)[C@H]2CCCN2C(=O)[C@H](NC(=O)[C@@H](NC(=O)[C@@H](NC(=O)[C@H](NC(=O)CC[C@@H](C)CC)C(C)C)[C@@H](C)OC(=O)C(F)(F)F)C(C)C)C(C)C)[C@H](C)CC)[C@H](C)OC(=O)[C@H](C(C)C)NC1=O
Solution: 241
